Biological target: Glucose transporter (Leishmania mexicana) (UniProt O61059)
Assay: ST_JUDE_LEISH: Cytotoxicity at 2uM final concentration against transgenic Leishmania Mexicana promastigotes LmGT2 that are glucose transport deficient and complemented with the L. Mexicana glucose transporter 2. Activity is measured by DNA content using SYBR green in vitro
Format: functional
parameter.measured: inhibition (%)

{"columns": ["compound", "parameter.measured", "recorded.result"],
 "data": [
  ["CCOc1ccc(-c2nonc2NC(=O)c2ccc(OC)cc2)cc1OCC", "inhibition", -0.16],
  ["CS(=O)(=O)Cc1ccc(Nc2ncc(Cl)c(Nc3cccnc3C(N)=O)n2)cc1", "inhibition", 23],
  ["COc1ccc2[nH]c3ccccc3c(=O)c2c1", "inhibition", 6.72],
  ["CC(C)C[C@H](NC(=O)c1ccc(OCCN2CCOCC2)cc1)C(=O)NC(/C=N/N1CCCC1=O)C(C)C (stereo not given in full)", "inhibition", 2.49],
  ["N#Cc1ccc(CN2CCC(Oc3ccc(NC(=O)c4cccs4)cc3Cl)C2)cc1 (stereo not given)", "inhibition", -0.2],
  ["CCOc1ccc(C2CCN(CCCCNC(=O)c3ccc(NC(=O)c4ccc(Cl)cc4)cc3)CC2)c(OCC)c1", "inhibition", 2.91],
  ["O=C(CCn1cncn1)N1CCCC(c2[nH]c3ccccc3c2-c2ccncc2)C1 (stereo not given)", "inhibition", 1.39],
  ["CC(=O)c1ccc2nc[nH]c(=O)c2c1", "inhibition", 91.6],
  ["N#Cc1cncc(-c2nc3c(N4CCN(c5cnccn5)CC4)cccc3n2CCNCc2ccccc2)c1", "inhibition", -3.33],
  ["CC(=Nc1ccc(Cl)c(Cl)c1)N(C)C", "inhibition", 0.02],
  ["O=C(Nc1cc(Cl)ccc1O)c1cc(-c2ccccc2O)no1", "inhibition", -2.64],
  ["Cn1nc(-c2ccc(NC(=O)Nc3cc(C(F)(F)F)cc(C(F)(F)F)c3)c(F)c2)c2cnc(NCCN3CCOCC3)nc21", "inhibition", 3.49],
  ["Clc1ccc(-c2ccc(CNCCCN3CCCC3)cc2)cc1", "inhibition", 3.65],
  ["Cn1c(NCc2cc(F)cc3c2OCOC3)nc2cc(Nc3ccnc(Nc4cccc(CS(C)(=O)=O)c4)n3)ccc21", "inhibition", 1.18],
  ["Cc1ccc(CN2CCC(C(=O)Nc3ccc(-c4cc5ccccc5[nH]4)cc3)CC2)o1", "inhibition", 4.6],
  ["Cc1ccc(Cn2nc(Cl)c(N3CCNCC3)cc2=O)cc1NC(=O)Nc1ccc(-c2ccccc2)cc1", "inhibition", 6.75],
  ["Cc1noc(C)c1-c1ccc2c(Nc3ccccc3C(C)(C)C)c(C(=O)NCc3ccc(OC(C)C)cc3)cnc2c1", "inhibition", 5.28],
  ["CS(=O)(=O)CCN(CCS(C)(=O)=O)Cc1ccc(-c2ccc3ncnc(Nc4ccc(OCc5cccc(F)c5)c(Cl)c4)c3c2)o1", "inhibition", 2.35],
  ["Cc1cccc(CNc2nc(C)cc(NCCC(=O)NCCOc3ccccc3)n2)c1", "inhibition", -0.13],
  ["Cc1cccc2nc(-c3ccc(-c4ccc(CN5CCC(C(N)=O)CC5)cc4)s3)[nH]c12", "inhibition", 8.95]
]}

----------
Listed here are compounds together with their documented inhibition.
Biological target: Solute carrier family 2, facilitated glucose transporter member 1 (Homo sapiens) (UniProt P11166)
Sequence (P11166 whole entry): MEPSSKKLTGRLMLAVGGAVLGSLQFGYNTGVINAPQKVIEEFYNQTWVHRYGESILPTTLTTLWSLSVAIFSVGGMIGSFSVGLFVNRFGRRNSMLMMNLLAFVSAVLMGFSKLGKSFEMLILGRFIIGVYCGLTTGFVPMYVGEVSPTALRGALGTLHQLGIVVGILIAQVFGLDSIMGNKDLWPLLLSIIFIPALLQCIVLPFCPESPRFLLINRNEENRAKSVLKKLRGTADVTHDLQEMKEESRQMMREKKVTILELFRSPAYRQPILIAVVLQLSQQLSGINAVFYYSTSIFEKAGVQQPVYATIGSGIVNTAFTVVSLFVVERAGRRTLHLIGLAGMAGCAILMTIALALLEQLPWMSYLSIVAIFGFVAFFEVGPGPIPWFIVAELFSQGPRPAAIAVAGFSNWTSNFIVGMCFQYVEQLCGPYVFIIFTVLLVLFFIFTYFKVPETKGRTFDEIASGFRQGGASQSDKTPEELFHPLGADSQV
Experiment: ST_JUDE_LEISH: Cytotoxicity at 2uM final concentration against transgenic Leishmania Mexicana promastigotes LmGLUT1 that are glucose transport deficient and complemented with the human glucose transporter GLUT1. Activity is measured by DNA content using SYBR green in vitro
Format: functional

{"columns": ["compound", "inhibition (%)"],
 "data": [
  ["Cc1ccc(NC(=O)c2ccc(CN3CCCN(CC4CCCCC4)CC3)cc2)cc1C", 7.66],
  ["CN1CCCN(Cc2ccc(-c3cccc(NC(=O)c4ccc(F)cc4)c3)cc2)CC1", 19.9],
  ["N#Cc1ccc(N2CCN(Cc3cccc(-c4ccc(-c5nc6ccccc6[nH]5)cc4)c3)CC2)nc1", 6.09],
  ["NC(=O)c1cccc(C(=O)Nc2cccc(-c3cccc(-c4nc5cc(C(F)(F)F)ccc5[nH]4)c3)c2)c1", -0.51],
  ["COc1cc(F)c2ncc(F)c(CCN3C[C@H](CNCc4ccc5c(n4)NC(=O)CS5)[C@H](O)C3)c2c1", 0.13],
  ["COc1ccc(NC(=O)CSc2nc(-c3ccccc3Cl)ns2)cc1", 1.15],
  ["COc1ccc(F)cc1-c1ccccc1CNC(=O)CN(C)S(=O)(=O)c1cc(C)cc(Cl)c1C", 1.17],
  ["COCCN1CCC(N(CC2(O)CCN(c3ccc(C(F)(F)F)cc3)CC2)C(=O)Cn2c(SCc3cccc(F)c3F)cc(=O)c3ccccc32)CC1", -0.38],
  ["Nc1cnc(C#Cc2cc3ncnc(N(CCN4CCOCC4)c4ccc(OCc5cccc(F)c5)c(Cl)c4)c3s2)cn1", 1.16],
  ["O=C(Nc1ccc(S(=O)(=O)N2CCOCC2)cc1)c1cc(-c2cc(Cl)ccc2O)n[nH]1", 0.98],
  ["COc1ccc(C2CC(=O)C3=C(C2)NC(C)=C(C(=O)OC2CCCC2)C3c2ccc(O)cc2)cc1OC (centres undefined)", -0.48],
  ["c1ccc(CN2CCc3cc4nccc(N5CCNCC5)c4cc32)cc1", -3.94],
  ["COc1c(Br)cc(Br)cc1C(C)=O", 3.62],
  ["CCCCCOc1ccc(/N=C2\\C=C(O)C(=O)c3ccccc32)cc1", 1.82],
  ["CCN(CC)CCN(Cc1ccc(-c2ccc(C(F)(F)F)cc2)cc1)C(=O)Cn1c(CCc2cccc(F)c2F)cc(=O)cc1-c1ccccc1", 1.88],
  ["Cc1cc(OCC2CCCN(c3ncc(C(=O)NC4CC4)cc3Cl)C2)ccc1F (centres undefined)", 0.51],
  ["COc1ccc(COc2c(OC)cc(Cc3cnc(N)nc3N)cc2OC)cc1", 5.65],
  ["CCCCCC(=O)NCC(NCCCNc1cc(=O)c2ccccc2[nH]1)c1cc(Br)cc(Br)c1 (centres undefined)", 5.16],
  ["Fc1ccc2[nH]c(-c3ccc(-c4cccc(CN5CCN(c6ccncc6)CC5)c4)cc3)nc2c1", 2.37]
]}

----------
Molecular target: Solute carrier family 2, facilitated glucose transporter member 1 (Homo sapiens) (UniProt P11166)
Assay: ST_JUDE_LEISH: Cytotoxicity at 2uM final concentration against transgenic Leishmania Mexicana promastigotes LmGLUT1 that are glucose transport deficient and complemented with the human glucose transporter GLUT1. Activity is measured by DNA content using SYBR green in vitro
Assay type: functional
Listed here are compounds together with their documented inhibition.
parameter.measured: inhibition (%)

{"columns": ["compound", "parameter.measured", "recorded.result"],
 "data": [
  ["NCC1CCCN1Cc1ccc(-c2ccc(-c3nc4cc(F)ccc4[nH]3)cc2)cc1 (stereo not given)", "inhibition", 8.49],
  ["COc1cc(F)c2nccc([C@@H](O)CN3CCC(NCc4ccc5c(n4)NC(=O)CS5)CC3)c2c1", "inhibition", -0.92],
  ["CN(C)CCOc1cc(NC(=O)Nc2ccc3c(c2)CCCC3=O)ccc1I", "inhibition", 5.03],
  ["O=C1c2ccccc2CN1CCCN1CCC(Oc2ccc(F)cc2)CC1", "inhibition", -2.87],
  ["c1ccc(CCNCc2ccc(-c3cccc(CNc4ccc5ncccc5c4)c3)cc2)cc1", "inhibition", 14.6],
  ["Nc1ncc(-c2ccc(NC(=O)Nc3cc(C(F)(F)F)ccc3F)cc2)c(N)n1", "inhibition", -0.9],
  ["CCc1cn2c3c(cc(C(=O)N[C@@H](Cc4ccccc4)[C@H](O)CNC4CCC4)cc13)N(C)S(=O)(=O)CC2", "inhibition", 2.42],
  ["O=C(Nc1ccc(N2CCCCC2)c(Cl)c1)c1nc[nH]n1", "inhibition", 2.18],
  ["CC(C)CNCc1cccc(-c2cccc(CN(CCN(C)C)C(=O)NCCc3ccccc3)c2)c1", "inhibition", -1.09],
  ["c1ccc2c(CNc3nc(NCC4CCCCC4)nc4[nH]cnc34)cccc2c1", "inhibition", 4.27]
]}

----------
Target: Glucose transporter (Leishmania mexicana)
Test: ST_JUDE_LEISH: Cytotoxicity at 2uM final concentration against transgenic Leishmania Mexicana promastigotes LmGT2 that are glucose transport deficient and complemented with the L. Mexicana glucose transporter 2. Activity is measured by DNA content using SYBR green in vitro
Type: functional
Listed here are compounds together with their documented inhibition.

{"columns": ["compound", "inhibition"],
 "data": [
  ["CCCCCN1CCCN(Cc2cccc(NC(=O)c3ccc(Cl)c(Cl)c3)c2)CC1", "2.58%"],
  ["Cc1nc(C)c(CC(=O)Nc2ccc(-c3cccc(-c4nc5cccc(C)c5[nH]4)c3)cc2)s1", "4.14%"],
  ["CC(C)(C)c1ccc(CNCCOc2ccc(Nc3nnc(-c4ccc(-c5ncc[nH]5)cc4)o3)c3ccccc23)cc1", "2.83%"],
  ["O=C(Nc1ccc(Cl)c(Cl)c1)N1CCc2ccc(OCCCN3CCCCC3)cc2CC1", "20.3%"],
  ["Cc1ccc(C(=O)Nc2cc(C(F)(F)F)cc(C(F)(F)F)c2)cc1[N+](=O)[O-]", "7.77%"],
  ["CCOC(=O)c1cc(C(=O)NCCCCN2CCC(c3ccc(CC)cc3OCC)CC2)ccc1-c1ccc(C(F)(F)F)cc1", "3.34%"],
  ["Cc1nc(NCc2ccccc2)cc(Nc2cc(NCc3ccccc3)nc(C)n2)n1", "1.98%"],
  ["CS(=O)(=O)CCNCc1cc(-c2cc3ncnc(Nc4ccc(OCc5cccc(F)c5)c(Cl)c4)c3s2)cs1", "5.4%"],
  ["CN1CCCN(Cc2cccc(-c3ccc(NS(=O)(=O)c4cccc5cccnc45)cc3)c2)CC1", "-3.11%"],
  ["Cn1nccc1C(=O)NCCNCc1ccc(-c2cccc(-c3nc4cc(C(F)(F)F)ccc4[nH]3)c2)cc1", "2.51%"],
  ["Cc1nc2nc(N)nc(N)c2c(C)c1Cc1ccccc1Br", "6.78%"],
  ["O=C(Cc1c[nH]cn1)Nc1cccc(-c2ccc(-c3nc4cc(F)ccc4[nH]3)s2)c1", "0.26%"],
  ["CN=C(S)NN=C(C)c1ccccn1", "-1.99%"],
  ["CCC(C)(C)c1ccc(OCCCC(=O)Nc2ccc(Cl)c([N+](=O)[O-])c2)c(C(C)(C)CC)c1", "1.34%"],
  ["Cc1cc(OCC2CCCN(c3ncc(C(=O)NC4CC4)cc3Cl)C2)ccc1F (centres undefined)", "0.81%"],
  ["OC(CN(Cc1ccccc1)Cc1ccccc1)Cn1c2ccc(Cl)cc2c2cc(Cl)ccc21 (centres undefined)", "1.37%"],
  ["Cc1cc(OCCCN2CCC(NS(=O)(=O)c3ccc(Cl)c(Cl)c3)CC2)c2ccccc2n1", "4.76%"],
  ["COc1ccc(-c2ccc(NC(=O)c3ccc(C#N)cc3)cc2)cc1CNC(C)C", "2.38%"],
  ["Cc1cccc(Nc2nccc(NCC(O)c3cccc(C(F)(F)F)c3)n2)c1 (centres undefined)", "2.59%"],
  ["O=C(/C=C/c1ccc(Cl)c(Cl)c1)NCCCCCN1CCC(NS(=O)(=O)c2cc(Cl)cc(Cl)c2)CC1", "3.19%"],
  ["Cc1nc(C)c(-c2ccc(-c3ccc(F)cc3)cc2)c(O)c1Cl", "0.55%"],
  ["Cn1cncc1C(=O)Nc1cccc(-c2cccc(-c3nc4cc(F)ccc4[nH]3)c2)c1", "1.75%"],
  ["O=C(NC1CCN(Cc2ccccc2)CC1)c1ccc2c(=O)n(Cc3ccc(Cl)cc3)c(=S)[nH]c2c1", "1.31%"],
  ["NS(=O)(=O)c1ccccc1Nc1nc(Nc2ccc(N3CCOCC3)cc2)nc2c1CCC2", "3.91%"],
  ["CC(C)C(C(=O)Nc1ccc2c(c1)OCO2)c1ccc(Cl)cc1 (centres undefined)", "1.99%"],
  ["Cc1ccc(NC(=O)c2cc(S(=O)(=O)NC(C)(C)C)ccc2C)nc1", "2.32%"],
  ["O=C(CC(=O)C(F)(F)F)c1ccccc1[N+](=O)[O-]", "-1.14%"],
  ["N#Cc1cc(C(=O)Nc2ccccc2)c(N)nc1SCC(=O)Nc1ccc(Br)cc1", "4.96%"],
  ["COc1ccc(OC)c(-c2ccc(O)c(CNCC(C)c3ccccc3)c2)c1 (centres undefined)", "-1.24%"],
  ["COc1ccc2nccc([C@@H](O)CN3CCC(NC(=O)C(c4cc5ccccc5o4)N4CCN(C(c5ccccc5)c5ccccc5)CC4)CC3)c2c1 (some centres undefined)", "1.41%"],
  ["O=C(/C=C/c1ccc(I)cc1)NCCCCCN1CCC(c2c[nH]c3ccccc23)CC1", "2.95%"],
  ["CN1CCCc2cc(NC(=O)C=Cc3ccc(-c4ccc(F)cc4F)o3)ccc2C1", "8.04%"],
  ["COc1ccc2nccc([C@@H](O)CN3CCC(NCc4ccc5c(c4)NC(=O)C(C)(C)O5)CC3)c2c1", "3.18%"],
  ["CC(C)(C)c1ccc(O)c(CNC2CCCCC2)c1", "3.1%"],
  ["c1ccc(CCNc2ccnc(Nc3ccc4[nH]nnc4c3)n2)cc1", "10.8%"],
  ["Cc1cccc2nc(-c3ccc(-c4cccc(NC(=O)c5cccc(C(N)=O)c5)c4)cc3)[nH]c12", "2.8%"],
  ["COc1ccc(N2CCN(C(CNC(=O)C3CCCCC3)c3ccc4c(c3)OCO4)CC2)cc1 (centres undefined)", "4.35%"],
  ["CSc1c(CNCCCNc2cc(=O)c3ccccc3[nH]2)[nH]c2ccccc12", "4.96%"],
  ["CC1CN(Cc2cccc(C#N)c2)CCN1c1ccc(NC(=O)c2cccs2)cc1 (centres undefined)", "4.53%"]
]}
